Measured Cell-Cell Fusion IC50 accompanies every entry in the list below.
Molecular target: gp41 of the envelope glycoprotein of the HIV-1 clone HxB2 (HIV-1 clone HxB2, UniProt P04578 33-856)
Assay: cell-based or functional assay
Where no end group is shown, it is not given here. [ ]: non-standard residue; d: D form. APC = trans-3-aminopyrrolidine-4-carboxylic acid; ACPC = trans-2-aminocyclopentanecarboxylic acid; β3hR = N=C(N)NCCC[C@H](N)CC(=O)O; β3hT = C[C@@H](O)[C@H](N)CC(=O)O; β3hE = N[C@@H](CCC(=O)O)CC(=O)O; β3hA = C[C@H](N)CC(=O)O

Binder | Unit Text | Cell-Cell Fusion IC50
Ac-TTWEAWDRAIAEYAARIEALIRAAQEQQEKNEAALREL (also called T-2635; CHR α-peptide 3) [α-peptide 3] | nM | 9
Ac-[β3hT]TWE[ACPC]WD[APC]AIA[β3hE]YA[ACPC]RIE[ACPC]LI[APC]AAQ[β3hE]QQ[β3hE]KNE[ACPC]AL[APC]EL-NH2 (Made from 9 by replacing the three β3-hArg residues with APC; also called foldamer 10) [α/β-peptide 10] | nM | 5
Ac-[β3hT]TWE[β3hA]WD[β3hR]AIA[β3hE]YA[β3hA]RIE[β3hA]LI[β3hR]AAQ[β3hE]QQ[β3hE]KNE[β3hA]AL[β3hR]EL (also called oligomer 4) [α/β-peptide 4] | nM | 390
Ac-TTWEAWDRAIAEYAARIEALI[β3hR]AAQ[β3hE]QQ[β3hE]KNE[β3hA]AL[β3hR]EL (Chimera of α-peptide 3 and α/β-peptide 4; also called oligomer 5) [(α+α/β)-peptide 5] | nM | 7
